Source of measurements: ChEMBL document CHEMBL4251555

# ASSAY: Selectivity index, ratio of IC50 for human RPE1 cells to IC50 for human PANC1 cells
# Assay type: toxicity
# CONDITION NOTES: RPE1 cells versus PANC1 cells, read-out: Ratio IC50
MEASURED METRIC: selectivity ratio

Answered cases to consult:
q: Kindly indicate its recorded selectivity ratio. Item: CCOc1ccc(-n2nnc3n[nH]c(NC45CC6CC(CC(C6)C4)C5)c3c2=O)cc1
a: > 22.7

q: Kindly indicate its recorded selectivity ratio. Item: CCOc1ccc(NC(=O)/C(C#N)=C(\NC23CC4CC(CC(C4)C2)C3)SC)cc1
a: > 4.2

q: Kindly indicate its recorded selectivity ratio. Item: CCNc1[nH]nc(N)c1C(=O)Nc1ccc(OCC)cc1
a: > 6.8

# evaluate next
q: Kindly indicate its recorded selectivity ratio. Item: C=CCNc1[nH]nc(N)c1C(=O)Nc1ccc(OCC)cc1
a: > 3.2
